Values were extracted from paper PMC12044458.

target: human RNase; construct: his-tag-labeled human RNase; assay: microscale thermophoresis (MST), two-site fit; Kd2 =[…]; type: binding
PROPERTY: pKd
// scale note: pKd = -log10(conc_M); give the bare number

Fill blank: measured pKd of the compound `C[C@H]1c2cccc(O)c2C(=O)C2=C(O)[C@]3(O)C(=O)C(C(N)=O)=C(O)[C@@H](N(C)C)[C@@H]3[C@@H](O)[C@@H]21` is ____.
6.83

====

target: human RNase; construct: his-tag-labeled human RNase; experiment: microscale thermophoresis (MST), two-site fit; Kd2 =[…]; type: binding
PROPERTY: pKd
Scale: negative log10 of molar concentration, which is what pKd denotes.

Form field: pKd recorded for CN(C)c1ccc(O)c2c1C[C@H]1C[C@H]3[C@H](N(C)C)C(O)=C(C(N)=O)C(=O)[C@@]3(O)C(O)=C1C2=O [minocycline] with human RNase (enter value)
6.29
